assay: Cytotoxicity against human Raji cells assessed as cell viability at 10 molar ratio after 48 hrs by trypan blue staining method; assay type: cell-based; details: read-out: Activity
measuredMetric: viability at 48 h, 10 molar ratio

Quick one: viability at 48 h, 10 molar ratio of C=C(C)[C@@H]1CC[C@]2(C(=O)O)CC[C@]3(C)[C@H](CC[C@@H]4[C@@]5(C)CC[C@H](OC(=O)CC(C)(C)C(=O)O)C(C)(C)[C@@H]5CC[C@]43C)[C@@H]12 ?
> 80%

// below: viability at 48 h, 10 molar ratio requested for another molecule
Item under review: C=C(C)[C@@H]1CC[C@]2(C(=O)O)CC[C@]3(C)[C@H](CC[C@@H]4[C@@]5(C)CC[C@H](OC(=O)CCC/C=C\C/C=C\C/C=C\C/C=C\C/C=C\CC)C(C)(C)[C@@H]5CC[C@]43C)[C@@H]12 . Reported viability at 48 h, 10 molar ratio?
> 80%
